biological target: T1, human SIRPα v1 ECD recombinant protein (tag not given) (human, UniProt P78324 31-373); experiment: competitive ELISA, biotin human SIRPα v1 ECD on coated human CD47 ECD
T1 construct: extracellular domain; also called biotin labeled soluble human SIRPα v1 ECD recombinant protein; ELISA microplate coated human SIRPα v1 ECD
T1 sequence (P78324 31-373): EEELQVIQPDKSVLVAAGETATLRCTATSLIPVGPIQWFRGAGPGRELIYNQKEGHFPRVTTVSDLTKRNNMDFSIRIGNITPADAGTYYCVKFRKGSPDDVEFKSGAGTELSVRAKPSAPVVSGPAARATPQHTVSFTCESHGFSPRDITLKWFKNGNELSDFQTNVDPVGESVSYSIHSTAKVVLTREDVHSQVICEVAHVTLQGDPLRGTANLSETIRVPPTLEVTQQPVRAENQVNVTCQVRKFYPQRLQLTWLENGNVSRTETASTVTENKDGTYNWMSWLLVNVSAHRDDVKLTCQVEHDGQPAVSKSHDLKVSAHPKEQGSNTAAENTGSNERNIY
measuredParameter: pIC50
// pIC50 is dimensionless: -log10 of concentration (M)

Challenge: I have this binder here, 015 (antibody, V domains shown, Mouse monoclonal hybridoma antibody; also called antibody 015; hybridoma antibody 015) VH: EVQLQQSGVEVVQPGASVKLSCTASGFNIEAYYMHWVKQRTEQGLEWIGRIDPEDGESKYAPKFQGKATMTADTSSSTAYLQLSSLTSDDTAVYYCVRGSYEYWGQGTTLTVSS VL: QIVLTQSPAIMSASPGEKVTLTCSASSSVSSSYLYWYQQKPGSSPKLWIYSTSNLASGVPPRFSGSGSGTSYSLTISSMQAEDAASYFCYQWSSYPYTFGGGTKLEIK , and I need its recorded pIC50.
Response given: 9.52
